The origin of these recorded values is patent US20040229898A1.

Test system: N2a cells
Assay: Cell viability assay (MTT) in uninfected N2a cells
Format: cell-based, mouse
Conditions: 500 nM, seven days, N2a, MTT, versus untreated control
Measured quantity: % Cell Viability (±SEM) 500 nM

[ask] Find % Cell Viability (±SEM) 500 nM (N2a cells) for the entry COc1ccc2nc3cc(Cl)ccc3c(NCCCCN(CCCNc3c4ccc(Cl)cc4nc4ccc(OC)cc34)C(=O)[C@H](C)N)c2c1 [Compound 16]
[reply] 0(±1) %

[ask] Missing value: % Cell Viability (±SEM) 500 nM, N2a cells, entry COc1ccc2nc3cc(Cl)ccc3c(NCCNCCNc3c4ccc(Cl)cc4nc4ccc(OC)cc34)c2c1 [Compound 5] . Fill in?
[reply] 100(±18) %

[ask] Observed % Cell Viability (±SEM) 500 nM on N2a cells for COc1ccc2nc3cc(Cl)ccc3c(NCCCN3CCN(CCCNc4c5ccc(Cl)cc5nc5ccc(OC)cc45)CC3)c2c1 [Compound 11] , please.
[reply] 79(±1) %

[ask] Test system N2a cells; read-out % Cell Viability (±SEM) 500 nM; what value for COc1ccc2nc3cc(Cl)ccc3c(NCCCCCCCCNc3c4ccc(Cl)cc4nc4ccc(OC)nc34)c2n1 [Compound 21] ?
[reply] 96(±5) %

---

System: N2a cells
Test: Cell viability assay (MTT) in uninfected N2a cells
Format: cell-based, mouse
Conditions: 200 nM, seven days, N2a, MTT, versus untreated control
For each of the compounds below, state its % Cell Viability (±SEM) 200 nM.

[ask] Lab note: need % Cell Viability (±SEM) 200 nM for `COc1ccc2nc3cc(Cl)ccc3c(NCCCNCCCNc3c4ccc(Cl)cc4nc4ccc(OC)cc34)c2c1` on N2a cells, anyone have it?
[reply] 33(±1) %

[ask] Write down the reported % Cell Viability (±SEM) 200 nM of `COc1ccc2nc3cc(Cl)ccc3c(NCCCCN(CCCNc3c4ccc(Cl)cc4nc4ccc(OC)cc34)C(=O)CNC(=O)[C@H](C)NC(=O)OC(C)(C)C)c2c1` , test system: N2a cells.
[reply] 78(±13) %

[ask] For the record `CCCN(CCCCNc1c2ccc(Cl)cc2nc2ccc(OC)cc12)CCCNc1c2ccc(Cl)cc2nc2ccc(OC)cc12` , what value of % Cell Viability (±SEM) 200 nM is listed for N2a cells?
[reply] 77(±4) %

[ask] Requested read-out % Cell Viability (±SEM) 200 nM, target or system N2a cells, entry `COc1ccc2nc3cc(Cl)ccc3c(NCCCNCCCNCCCNc3c4ccc(Cl)cc4nc4ccc(OC)cc34)c2c1.Cl`
[reply] 16(±7) %

---

Test system: N2a cells
Test: Cell viability assay (MTT) in uninfected N2a cells
Type: cell-based, mouse
Settings: 50 nM, seven days, N2a, MTT, versus untreated control
Give measured % Cell Viability (±SEM) 50 nM for each item. Keep answers brief.

[ask] API: value(readout= % Cell Viability (±SEM) 50 nM, system= N2a cells, query= COc1ccc2nc3cc(Cl)ccc3c(NCCCNCCCNCCCNc3c4ccc(Cl)cc4nc4ccc(OC)cc34)c2c1.Cl [Compound 9] )
[reply] 92(±7) %

[ask] What measured % Cell Viability (±SEM) 50 nM is associated with COc1ccc2nc3cc(Cl)ccc3c(NCCCCCCCCNc3c4ccc(Cl)cc4nc4ccc(OC)nc34)c2n1 [Compound 21] on N2a cells?
[reply] 95(±3) %

[ask] # query: % Cell Viability (±SEM) 50 nM | item COc1ccc2nc3cc(Cl)ccc3c(NCCCNCCCNc3c4ccc(Cl)cc4nc4ccc(OC)cc34)c2c1 [Compound 6] | system: N2a cells
[reply] 98(±5) %

[ask] Any idea what % Cell Viability (±SEM) 50 nM came out for COc1ccc2nc3cc(Cl)ccc3c(NCCNCCCNCCNc3c4ccc(Cl)cc4nc4ccc(OC)cc34)c2c1 [Compound 8] on N2a cells?
[reply] 100(±13) %

[ask] Checklist item: % Cell Viability (±SEM) 50 nM tested on N2a cells, entry COc1ccc2nc3cc(Cl)ccc3c(NCCCCNCCCNc3c4ccc(Cl)cc4nc4ccc(OC)nc34)c2n1.Cl [Compound 20] , value?
[reply] 100(±15) %

[ask] Return % Cell Viability (±SEM) 50 nM measured with N2a cells given this compound: CCCN(CCCCNc1c2ccc(Cl)cc2nc2ccc(OC)cc12)CCCNc1c2ccc(Cl)cc2nc2ccc(OC)cc12 [Compound 15]
[reply] 100(±5) %

[ask] Param readout = % Cell Viability (±SEM) 50 nM; param system = N2a cells; param query = COc1ccc2nc3cc(Cl)ccc3c(NCCNCCNc3c4ccc(Cl)cc4nc4ccc(OC)cc34)c2c1 [Compound 5] ; response: value
[reply] 100(±20) %
